Test system: HL-60(TB) leukemia
Procedure Summary: NCI-60 one-dose screen, 48 h (100 = growth as untreated, 0 = no growth, -100 = all killed)
Run Parameters: 10 µM unless noted
About 83,000 compounds went through this panel and 20% of them were active in at least one assay; those are over-represented in the sample as a whole.
Measured Attribute: growth (%)
Number in %, nothing else.

Solved cases below.
• COc1cc(-c2cc(=O)oc3cc(O)ccc23)c(OC)c2c1OCO2 = 103
• O=C(Nn1c2c(sc1=Nc1ccccc1)C(=O)c1ccccc1C2=O)c1cc2ccc1CCc1ccc(cc1)CC2 = 91.6
• c1ccc(CNc2c3ccccc3nc3ccccc23)cc1 = 43.8
• CN1CCC(CN2c3ccccc3Sc3ccccc32)C1 (stereo not given) = 63.9

Continue with the compound presented below.
What growth value was documented for this compound, "O=C(CCl)N1CCCc2ccccc21" ? 93.3
